- Tested on: ECHCG
- experiment: Pre-emergence herbicidal activity, glasshouse pot test
- Format: in vivo
- test settings: rate 1000 g/Ha, evaluated after 13 days, scale 0-5
Listing of entries alongside the reported ECHCG damage score, application pre-emergence.

- compound: "CON1C(=O)N(c2cc(C(F)(F)F)ccn2)C(O)[C@@H]1C (mixture of isomers) [Compound A3]"
  measured on: "ECHCG"
  result: 5
- compound: "CON1C(=O)N(c2cc(C(F)(F)F)c(Cl)cn2)C(O)C1C (centres unmarked) [Compound A50]"
  measured on: "ECHCG"
  result: 5
- compound: "CCC1C(O)N(c2cc(C(F)(F)F)ccn2)C(=O)N1C (centres unmarked) [Compound A1]"
  measured on: "ECHCG"
  result: 5
- compound: "CON1C(=O)N(c2cc(C(C)(F)F)ccn2)C(O)C1C (single isomer, unassigned) [Compound A93]"
  measured on: "ECHCG"
  result: 5
- compound: "CCOC1C(O)N(c2cc(C(F)(F)F)c(Cl)cn2)C(=O)N1C (centres unmarked) [Compound A53]"
  measured on: "ECHCG"
  result: 4
- compound: "C=CCOC1C(O)N(c2cc(C(F)(F)F)ccn2)C(=O)N1C (centres unmarked) [Compound A41]"
  measured on: "ECHCG"
  result: 2
- compound: "CCO[C@@H]1C(O)N(c2cc(C(F)(F)F)ccn2)C(=O)N1C (single isomer, unassigned) [Compound A34]"
  measured on: "ECHCG"
  result: 5

Kindly consider the entry below.
Input: Record lookup: for ECHCG, what ECHCG damage score, application pre-emergence belongs to O=C1N2COCC2C(O)N1c1cc(C(F)(F)F)ccn1 (single isomer, unassigned) [Compound A94] ?
Output: 5
